Here the recorded melting point is given for each entry.

melting point measured on O=C1CCC(N2C(=O)c3ccc(CNC(=O)NC4CCCCC4)cc3C2=O)C(=O)N1 (stereo unspecified) = 208 to 210 °C

melting point measured on COc1ccccc1CCCNc1ccc(C(=O)O)cc1 = 155 to 157 °C

melting point measured on COc1cc(CO)c(CO)cc1OCCCl = 93 to 94 °C

melting point measured on CCOc1ccc(C(=O)C2CC2)cc1 = 67 to 70 °C

melting point measured on O=C1OCCC1N[C@@H](Cc1ccccc1)C(=O)OCc1ccccc1 (stereo partly specified) = 46 to 47 °C

melting point measured on COc1ccc(OC)c(-c2cc3c(Nc4cccc(Cl)c4)ncnc3[nH]2)c1 = 267 to 268 °C

---

Here the recorded melting point is given for each entry.

CC(C)(COC(=O)c1ccccc1)c1cc(OS(C)(=O)=O)ccc1OC(=O)c1ccccc1 :: 100 to 101 °C

melting point measured on CCCCCCCCCc1ccc(-c2ccc(OCC(C)CC)nn2)cc1 (stereo not given) = 78 °C

melting point measured on COc1ccc2nc(C(=O)O)cnc2c1 = 248 °C

melting point measured on CC(C)(C)OC(=O)Nc1cc(N)cc(Cl)c1 = 85 to 87 °C

---

experimental-readout: melting point

O=c1[nH]c(=O)c2cc3occoc3cc12 :: 277 to 280 °C
COc1ccc2c(c1O)C(=O)O[C@@H]2[C@H]1c2c(cc3c(c2OC)OCO3)CCN1C :: 142 to 143 °C
CC(C)n1nc(-c2cc(Cl)c(N)nc2-c2ccccc2)ccc1=O :: 207 to 208 °C
CC12CC(=O)C3C(CCC4CC(O)CCC43C)C1CCC2C(=O)COc1ccc(N)cc1 (stereo not given) :: 179 to 180 °C
COc1ccc(CCN2CCC(C3c4ccn(C)c4C=Cn4ncnc43)CC2)cc1 (stereo not given) :: 140 °C
C=C(C)C(=O)Nc1cccc(OC(=O)Nc2ccccc2)c1 :: 177 to 178 °C

melting point measured on C[C@@H](NC(=O)[C@H](Cc1ccc(OC(C)(C)C)cc1)NC(=O)OC(C)(C)C)C(=O)O = 186 to 187 °C

melting point measured on CCCCCCCCCCCCCCCCCCOc1cc(N(CC(=O)O)CC(=O)O)cc([N+](=O)[O-])c1 = 131 to 134 °C

melting point measured on CCCCCCCCCCCCCCCCCCNC(=O)OCCN1CCCC1 = 57 °C

---

experimental-readout: melting point

Use these answered entries as a reference point.
Oc1ccc2c(nc(C(F)F)n2-c2nc(N3CCOCC3)nc(N3CCOCC3)n2)c1Cl :: > 250 °C
CC(C)Cc1nn(C)c(=O)c2cn(Cc3cccc4ccccc34)nc12 :: 166 to 167 °C
CCCCCC(O)C#CCCCCCCC#Cc1ccc(O)c(O)c1 (stereo not given) :: 46 to 48 °C
CC(CC(=O)c1ccccc1)C(=O)N[C@@H](CS)C(=O)O (stereo not given in full) :: 78 to 105 °C

melting point measured on CCCc1cccc2c(/C=C(\C)C(=O)O)cc(OC)c(O)c12 = 67 to 68 °C

---

experimental-readout: melting point

COc1ccc(OC)c(CN2CCc3cc(O)c(OC)cc3C2)c1 :: 104 to 105 °C

melting point measured on COc1ccc(C2CN(O)C3(c4ccccc4)CCCCC23)cc1OC (configuration not stated) = 166 to 168 °C

melting point measured on O=C1c2cc3nnn(Cn4cc(Br)cn4)c(=O)c3cc2OC2CCCN12 (configuration not stated) = 180 to 181 °C

melting point measured on N#CCOc1ccc(-c2ccc(=O)n(Cc3ccc(Cl)cc3F)c2)cc1 = 160 °C

---

experimental-readout: melting point

Use these answered entries as a reference point.
O=c1cc(N2CCOCC2)[nH]c2c(-c3ccc([N+](=O)[O-])c4c3oc3ccccc34)cccc12 :: 247 °C
COC(F)(F)c1nc2nc(C)c(F)cc2cc1C(=O)C1C(=O)CCCC1=O :: 143 to 146 °C
CC(C)=NOCc1nc2c(N)nc3ccccc3c2n1CC(C)C :: 194 to 195 °C
CCCSC(C(N)=O)c1cc(C)cc(C(=O)c2ccc(F)cc2)c1N (stereo not given) :: 130 to 132 °C

Would you kindly look at the next entry?
melting point measured on O=C(COc1cc(F)ccc1C(=O)NCc1cccc([N+](=O)[O-])c1)OCc1ccccc1 = 95 to 98 °C

---

experimental-readout: melting point

CC(C)n1c(=O)n(C(N)=O)c2ccccc21 :: 195 to 196 °C
N#Cc1ncc(F)cc1OC1SCC(O)C(O)C1O (stereo not given) :: 94 °C
COC(=O)[C@@H]1C[C@H](C(=O)OC(C)(C)C)N(C(=O)CNC(=O)OC(C)(C)C)[C@@H]1c1ccccc1F (racemic) :: 142 °C
CC(C)(C)c1ccc(OP2N(c3ccccc3)P(Oc3ccc(C(C)(C)C)cc3C(C)(C)C)N2c2ccccc2)c(C(C)(C)C)c1 (stereo not given) :: 162 to 166 °C
CC(C)(C)c1cc(CN)n(NCC(F)(F)F)n1 :: 80 to 83 °C

melting point measured on Cc1c(NC(=O)c2cccc(OCCN)c2)c2ccccn2c1C(=O)c1ccc(NC(=O)C(F)(F)F)c(C(=O)OCc2ccccc2)c1 = 219 °C

melting point measured on COC(=O)c1nc(Cl)c(F)c(N)c1I = 149 to 151 °C

melting point measured on CCN(CC)c1cccc2nc3n(c12)CC(N)CCN3c1ccc(Cl)cc1Cl (stereo not given) = 149 to 151 °C

melting point measured on CC(C)CN1C2=NCCN2C(=O)C(N=O)=C1N = 203 to 205 °C

melting point measured on O=Cc1csc2ccc(O)cc12 = 200 °C

melting point measured on CCOC(=O)c1ccc(NC(=O)Nc2nnc(-c3cc(Cl)cc(Cl)c3O)s2)cc1 = > 300 °C

melting point measured on Nc1ccc2c3c(cccc13)C(=O)N([C@@H]1CN3CCC1CC3)C2=O = 305 to 308 °C

melting point measured on CCCC(CCC)C(=O)O[C@H]1CCC=C2C=C[C@H](C)[C@H](CC[C@@H]3C[C@@H](O)CC(=O)O3)[C@H]21 = 92 to 94 °C

melting point measured on COc1cc(Nc2nccc(-c3ccc(NCC(C)(C)CN(C)C)nc3)n2)cc(OC)c1OC = 125 °C

melting point measured on Cn1c(=O)[nH]c2c(C(N)=O)nc(-c3cccnc3)nc21 = > 350 °C

melting point measured on CCCCNC(=O)NS(=O)(=O)c1ccccc1CCl = 104 to 106 °C

melting point measured on CCCCOc1ccc(COC(=O)C(=O)OCc2ccc(OCCCC)cc2)cc1 = 114 °C

melting point measured on C/C(=C\c1ccc(C(=O)O)cc1)c1ccc2c(c1)OCCO2 = 172 to 173 °C

melting point measured on CCSc1nccc(C)c1N = 37 to 38 °C

melting point measured on CCOC(=O)N1CCC2(CC1)C(=O)OC(=O)N2c1ccccc1 = 211 °C

---

experimental-readout: melting point (°C)

[a] O=C(Nc1ccn[nH]1)c1cccnc1Cl
[b] COc1ccccc1[C@@]1(O)[C@H](O)CC(c2ccccc2)(c2ccccc2)[C@@H]2CN(C(=O)Cc3ccccc3N3CCCC3)C[C@@H]21 (racemic)
Exercise: Would you mind telling me which has the lower recorded melting point between a and b ? Please indicate the selected item by its label.
Solution: a
(a: 163 °C, b: 236 °C)

---

experimental-readout: melting point

Clc1ccc2c(C3CCN(CCCCC4Cc5ccccc5C4)CC3)c[nH]c2c1 :: 139 to 140 °C

melting point measured on COc1sc(C)c(CO)c1C = 55 to 60 °C

melting point measured on CN1CCC2(CC1)CN(c1ccccc1)c1ccccc12 = 90 to 92 °C

melting point measured on Cc1ccc(S(=O)(=O)N(CCO)c2cc(C)cc([N+](=O)[O-])c2N)cc1 = 201 °C

melting point measured on CC(C)(Oc1ccc(OCCOc2cc(C(C)(C)C)c(O)c(C(C)(C)C)c2)cc1)C(=O)O = 124 °C

melting point measured on COC(=O)CCCc1cc2nc(Cl)ccc2n1S(=O)(=O)c1ccc2nc(NC(C)=O)sc2c1 = 274 °C

melting point measured on CC(C)CNC(=S)Nc1cc(Cl)cc(Cl)c1 = 144 °C

melting point measured on CN(C)c1ccc(-c2cccc(OC3SCC(O)C(O)C3O)c2)cn1 (stereo unspecified) = 119 °C

---

Here the recorded melting point is given for each entry.

CCOP(=O)(OCC)c1nc(N2CCOCC2)nc(N2CCOCC2)n1 :: 114 to 116 °C
CCC(O)(CCC(N)=O)c1ccc(Br)cc1 (stereo not given) :: 122 to 123 °C
O=C(O)CCCCCCCCCCC(=O)Nc1ccccc1OCCCC(=O)O :: 128 to 130 °C
C=C(C#N)C(=O)NCCCc1ccccc1 :: 83 °C

melting point measured on O=C(NN=C1C=CC=NC1)c1cccnc1 = 213 to 216 °C

melting point measured on CCCCc1nc2cccnc2n1-c1ccc(OCc2ccc(OC)c(OC3CC4CCC3C4)c2)cc1 (stereo not given) = 130 to 132 °C

melting point measured on CCOC(=O)c1cn(N)c2c(F)c(F)c(F)cc2c1=O = 217 °C

melting point measured on CCOC(=O)C1CC(=O)c2cc(C(C)(C)C)cc(C(C)(C)C)c2O1 (stereo not given) = 61 to 63 °C

melting point measured on CCCOc1ccc(S(=O)(=O)N2CCN(CCOC(=O)CCC)CC2)cc1-c1nc2c(CCC)cn(CC)c2c(=O)[nH]1 = 71.5 to 73 °C

melting point measured on CC12CCC3C(CCC4CC(=O)CCC43C)C1CCC2C#N (stereo not given) = 150 to 152 °C
